Data origin, for the record: patent US8748435B2

Target: mouse GPR4 (Mus musculus (Mouse))
Sequence (Q8BUD0 whole entry): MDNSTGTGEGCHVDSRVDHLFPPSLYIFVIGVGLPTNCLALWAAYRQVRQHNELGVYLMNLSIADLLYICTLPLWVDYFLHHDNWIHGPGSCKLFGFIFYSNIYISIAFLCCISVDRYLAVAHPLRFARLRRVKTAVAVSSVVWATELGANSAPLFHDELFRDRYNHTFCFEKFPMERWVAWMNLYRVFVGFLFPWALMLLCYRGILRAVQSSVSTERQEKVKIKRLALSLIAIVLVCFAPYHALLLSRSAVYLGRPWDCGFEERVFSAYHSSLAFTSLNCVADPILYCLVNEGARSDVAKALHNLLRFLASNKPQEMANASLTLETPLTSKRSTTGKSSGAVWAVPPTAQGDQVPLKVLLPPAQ
Assay: Mouse GPR4 cAMP assay
Counter-ions that a name gives are not always drawn.
READOUT_LABEL: IC50 (nM)

QUERY: Determine from records and report IC50 for `CCc1nn2c(C)cc(C)nc2c1Cc1ccc(-n2cc(CN3CC(O)C3)cn2)cc1`
RESULT: 687

QUERY: Determine from records and report IC50 for `CCc1nn2c(C)cc(C)nc2c1Cc1ccc(/C=C/CN2CCN(C(=O)[C@H](CO)NC)CC2)cc1`
RESULT: 216

QUERY: Determine from records and report IC50 for CCc1nn2c(C)cc(C)nc2c1Cc1ccc(/C=C/CN2CCN(C(=O)CN)CC2)cc1 [Example 11, dihydrochloride]
RESULT: 499

QUERY: Determine from records and report IC50 for `CCc1nn2c(C)cc(C)nc2c1Cc1ccc(/C=C/CN2CCN[C@@H](C)C2)cc1`
RESULT: 890

QUERY: Determine from records and report IC50 for `CCc1nn2c(C)cc(C)nc2c1Cc1ccc(OCCN2CCNCC2)cc1`
RESULT: 633

A. CCc1nn2c(C)cc(C)nc2c1Cc1ccc(/C=C/CC2(O)CNC2)cc1
B. CCc1nn2c(C)cc(C)nc2c1Cc1ccc(-c2nnc([C@H]3CC[C@H](N)CC3)o2)cc1
C. CCc1nn2c(C)cc(C)nc2c1Cc1ccc(/C=C/C[C@]2(O)CCN[C@@H](C)C2)cc1
QUERY: Number of compounds to sort: 3. Sort criterion: IC50, ascending. Answer with the labels in sequence, matching the requested order.
RESULT: C, B, A
